tested on: UO-31 renal; assay: NCI-60 one-dose screen, 48 h (100 = growth as untreated, 0 = no growth, -100 = all killed); conditions: 10 µM unless noted
Compounds without any hit were thinned out: in the full panel of roughly 83,000, 20% have a hit.
Listed here: items and their measured growth.

>  <COMPOUND_STRUCTURE>
COc1cc2c(Oc3ccc4[nH]c(C)cc4c3F)ncnc2cc1OCCCN1CCCC1

>  <RESULT_UNITS>
%

>  <growth>
45.3

$$$$
>  <COMPOUND_STRUCTURE>
O=C(NOCCO)c1cc(CN2OCCCC2=O)c(F)c(F)c1Nc1ccc(I)cc1F

>  <RESULT_UNITS>
%

>  <growth>
15

$$$$
>  <COMPOUND_STRUCTURE>
O=C1NC(=O)C(c2cnc3ccccn23)=C1c1cn2c3c(cc(F)cc13)CN(C(=O)N1CCCCC1)CC2

>  <RESULT_UNITS>
%

>  <growth>
28.8

$$$$
>  <COMPOUND_STRUCTURE>
Cn1ccnc1C(=O)/C=C/c1ccc(CC(=O)Nc2ccc(Br)cc2)cc1

>  <RESULT_UNITS>
%

>  <growth>
22.7

$$$$
>  <COMPOUND_STRUCTURE>
CO[C@H]1C[C@@H]2CC[C@@H](C)[C@@](O)(O2)C(=O)C(=O)N2CCCC[C@H]2C(=O)O[C@H]([C@H](C)C[C@@H]2CC[C@@H](OCCO)[C@H](OC)C2)CC(=O)[C@H](C)/C=C(\C)[C@@H](O)[C@H](OC)C(=O)[C@H](C)C[C@H](C)\C=C/C=C/C=C/1C

>  <RESULT_UNITS>
%

>  <growth>
16.6

$$$$
>  <COMPOUND_STRUCTURE>
CN(N)c1nc2sc3c(c2c(=O)[nH]1)CCCC3

>  <RESULT_UNITS>
%

>  <growth>
72.9

$$$$
>  <COMPOUND_STRUCTURE>
CC(C)Nc1cc(-c2c[nH]c(C(=O)N[C@H](CO)c3cccc(Cl)c3)c2)c(Cl)cn1

>  <RESULT_UNITS>
%

>  <growth>
18.2

$$$$
>  <COMPOUND_STRUCTURE>
O=C(Nc1cccc([N+](=O)[O-])c1)c1ccc(Cl)c(Cl)c1

>  <RESULT_UNITS>
%

>  <growth>
95.4

$$$$
>  <COMPOUND_STRUCTURE>
C[C@@H](Oc1cc(C(=O)Nc2ccc(C(=O)N3CCN(C)CC3)cc2)nnc1N)c1c(Cl)ccc(F)c1Cl

>  <RESULT_UNITS>
%

>  <growth>
48.4

$$$$
>  <COMPOUND_STRUCTURE>
CCc1nc2cc(F)c(/C=C/C(=O)NO)cc2c(=O)n1CCc1ccccc1

>  <RESULT_UNITS>
%

>  <growth>
-15

$$$$

----------
system: HCT-116 colon; experiment: NCI-60 one-dose screen, 48 h; details: 10 µM unless noted
Compounds without any hit were thinned out: in the full panel of roughly 83,000, 20% have a hit. The source made the active and inactive calls. The calls were made as follows: active = growth percent below 10; inactive = the rest.
Possible outcomes: t (active), f (inactive)

>  <COMPOUND_STRUCTURE>
COc1ccc(-c2ccc3c(N4CCOC[C@@H]4C)nc(N4CCOC[C@@H]4C)nc3n2)cc1CO

>  <SYSTEM_TESTED>
HCT-116 colon

>  <CLASS_NAME>
f

$$$$
>  <COMPOUND_STRUCTURE>
Cn1cc(-c2ccc(F)c(C(F)(F)F)c2)nc1C1CCN(c2ncnc3[nH]ncc23)CC1

>  <SYSTEM_TESTED>
HCT-116 colon

>  <CLASS_NAME>
f

$$$$
>  <COMPOUND_STRUCTURE>
Cc1cc(C(=O)Nc2cc(Oc3ccc4nc(NC(=O)C5CC5)cn4n3)ccc2C)n(C)n1

>  <SYSTEM_TESTED>
HCT-116 colon

>  <CLASS_NAME>
t

$$$$
>  <COMPOUND_STRUCTURE>
COc1cc2ncnc(Nc3cccc(Cl)c3F)c2cc1OC(=O)N1CCN(C)C[C@H]1C

>  <SYSTEM_TESTED>
HCT-116 colon

>  <CLASS_NAME>
f

$$$$
>  <COMPOUND_STRUCTURE>
O=C(NOC[C@H](O)CO)c1ccc(F)c(F)c1Nc1ccc(I)cc1F

>  <SYSTEM_TESTED>
HCT-116 colon

>  <CLASS_NAME>
f

$$$$
>  <COMPOUND_STRUCTURE>
COC(=O)[C@]12CC[C@@H](C)[C@H](C)[C@@H]1C1=CC[C@@H]3[C@@]4(C)C[C@@H](OC(=O)/C=C/c5ccccc5)[C@H](O)[C@@](C)(CO)[C@@H]4[C@H](O)C[C@@]3(C)[C@]1(C)CC2

>  <SYSTEM_TESTED>
HCT-116 colon

>  <CLASS_NAME>
t

$$$$
>  <COMPOUND_STRUCTURE>
CCn1c(-c2nonc2N)nc2c(C#CC(C)(C)O)ncc(OC[C@H]3CCCNC3)c21

>  <SYSTEM_TESTED>
HCT-116 colon

>  <CLASS_NAME>
f

$$$$
>  <COMPOUND_STRUCTURE>
CCCCn1c(C)nc2cc(Nc3nc(N4CCCCC4)nc4nc[nH]c34)ccc21

>  <SYSTEM_TESTED>
HCT-116 colon

>  <CLASS_NAME>
f

$$$$
